# target-under-test: Cytochrome P450 2C9 (Homo sapiens) (UniProt P11712)
# Sequence (P11712 whole entry, looked up): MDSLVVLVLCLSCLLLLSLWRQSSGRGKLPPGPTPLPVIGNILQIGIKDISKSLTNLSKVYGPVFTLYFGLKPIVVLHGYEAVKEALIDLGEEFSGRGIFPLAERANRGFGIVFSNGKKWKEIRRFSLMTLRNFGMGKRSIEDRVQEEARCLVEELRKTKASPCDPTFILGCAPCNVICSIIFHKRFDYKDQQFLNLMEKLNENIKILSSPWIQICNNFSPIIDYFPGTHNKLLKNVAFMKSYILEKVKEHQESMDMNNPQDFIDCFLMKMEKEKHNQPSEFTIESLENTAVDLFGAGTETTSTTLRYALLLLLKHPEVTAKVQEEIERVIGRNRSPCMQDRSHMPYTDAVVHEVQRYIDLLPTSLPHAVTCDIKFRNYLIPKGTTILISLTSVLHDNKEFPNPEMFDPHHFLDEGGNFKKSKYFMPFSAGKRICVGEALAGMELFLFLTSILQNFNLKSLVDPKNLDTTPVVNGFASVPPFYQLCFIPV
# assay-summary: Cytochrome P450 Family 2 Subfamily C Member 9 (CYP2C9) small molecule antagonists: luciferase reporter qHTS assay (AID 1671198); note: nearly all actives have a fitted effect of over 50% in size; note: potency is the fitted concentration of half-maximal effect
# stated-conditions: P450-Glo CYP2C9 enzyme assay, luciferin luminescence; series mostly up to 115 µM
Inconclusive results are not listed. The source made the active and inactive calls. Calls come from the whole dose curve; as a rule, active = well fitted inhibition curve with a large enough effect in the repeat runs; inconclusive = weak or mixed curves; inactive = no such curve, though single readings can be large or run the other way.
assay-readout: Potency

Here are 10 molecules together with their reported answers.
molecule	assay-readout	value-observed
O=C(CCl)C(Cl)Cl	Potency	40.3 µM (active)
CC(C)(COCC1CO1)COCC1CO1 (stereo unspecified)	Potency	inactive
CC(C)N1C(=O)N(c2ccccc2)CSC1=NC(C)(C)C	Potency	6.33 µM (active)
C=CCC1=C(C)C(OC(=O)C2C(C=C(C)C)C2(C)C)CC1=O (stereo unspecified)	Potency	6.71 µM (active)
ClC1=C(Cl)[C@]2(Cl)[C@@H]3[C@@H](Cl)[C@@H](Cl)C[C@@H]3[C@@]1(Cl)C2(Cl)Cl	Potency	inactive
Cc1cc(C(C)(C)c2cc(C)c(O)c(C)c2)cc(C)c1O	Potency	3.07 µM (active)
O=CC(Br)(Br)Br	Potency	14.1 µM (active)
CCOC(=O)c1ccccc1S(=O)(=O)NC(=O)Nc1nc(Cl)cc(OC)n1	Potency	inactive
O=c1c(C2CC(c3ccc(-c4ccc(Br)cc4)cc3)Cc3ccccc32)c(O)sc2ccccc12 (stereo unspecified)	Potency	5.49 µM (active)
CC(=[OH+])/C=C(/C)[O-].CC(=[OH+])/C=C(\C)[O-].CC(=[OH+])/C=C(\C)[O-].[Al]	Potency	inactive

Would you mind listing Potency for each of the following molecules?
1. CCc1nn(C)c(C(=O)NCc2ccc(C(C)(C)C)cc2)c1Cl
2. N#Cc1ccccc1N
3. CCCCCCCCCCCCCCCCCCn1cc[n+](C)c1
4. O=C(NC(=O)c1c(F)cccc1F)Nc1cc(Cl)c(OC(F)(F)C(F)F)c(Cl)c1
5. C[C@H]1CC[C@@H]2[C@@H](C)[C@H]3[C@H](C[C@H]4[C@@H]5CC=C6CC(O[C@@H]7O[C@H](CO)[C@H](O)[C@H](O[C@@H]8O[C@H](CO)[C@@H](O)[C@H](O)[C@H]8O)[C@H]7O[C@H]7O[C@@H](C)[C@H](O)[C@@H](O)[C@H]7O)CC[C@]6(C)[C@H]5CC[C@]34C)N2C1 (stereo partly specified)

Reply text:
1. 17.8 µM (active)
2. inactive
3. 50 µM (active)
4. 39.9 µM (active)
5. inactive

Would you mind listing Potency for each of the following molecules?
1. O=c1ssc(Cl)c1Cl
2. ClCCN1CCOCC1
3. Oc1c(Cl)c(Cl)cc(Cl)c1Cl
4. CN(C)CCc1c[nH]c2ccc(O)cc12
5. c1ccc2cc3c(cc2c1)-c1cccc2cccc-3c12

Reply text:
1. 39.9 µM (active)
2. inactive
3. 21.8 µM (active)
4. 24.6 µM (active)
5. inactive

Would you mind listing Potency for each of the following molecules?
1. CCSC(C)CC1CC(=O)C(/C(CC)=N/OC/C=C/Cl)=C(O)C1 (stereo unspecified)
2. CC(=O)c1ccc(-c2ccccc2)cc1
3. [Cl][Sn]([c]1ccccc1)([c]1ccccc1)[c]1ccccc1
4. CC(C)(C)C(O)/C(=C\c1ccc(Cl)cc1Cl)n1cncn1 (stereo unspecified)
5. Clc1ccc(-c2ccccc2)cc1
6. CCCCCCCCCCBr
7. O=C/C(Cl)=C(/Cl)C(=O)O
8. CN(C)C1CSSSC1

Reply text:
1: 13.8 µM (active); 2: 15.9 µM (active); 3: 3.79 µM (active); 4: 4.83 µM (active); 5: inactive; 6: inactive; 7: inactive; 8: 28.3 µM (active)

Would you mind listing Potency for each of the following molecules?
1. CC(O)C#N (stereo unspecified)
2. Oc1ccc2ccc3cccc4ccc1c2c34
3. COC(=O)N(C(=O)N1COC2(C(=O)OC)Cc3cc(Cl)ccc3C2=N1)c1ccc(OC(F)(F)F)cc1 (stereo unspecified)
4. S=C(SSC(=S)N1CCCCC1)N1CCCCC1
5. CCOP(=O)(NC(C)C)Oc1ccc(SC)c(C)c1 (stereo unspecified)
6. Cn1[nH]nnc1=S
7. Oc1c(Br)c(Br)c(Br)c(Br)c1Br

Reply text:
inactive
35.6 µM (active)
4.9 µM (active)
6.92 µM (active)
11.9 µM (active)
71 µM (active)
35.8 µM (active)

Lab note: measured Potency of CCCCN(CCCC)C(=S)[S-].CCCCN(CCCC)C(=S)[S-].[Zn+2] was 20 µM (active)

Values were extracted from PubChem BioAssay (Tox21).
